Let's look at some molecules and their measured IC50.
assay.target: Aurora B/INCENP (Homo sapiens)
test.summary: Determination of inhibition of AIK: Aurora B/INCENP direct fluorescence polarization (IMAP) assay
Type: biochemical
condition.description: 10 uM ATP, 0.8 nM Aurora B/INCENP; values given as bins; read-out: IC50 of Exemplified Compounds Against AIK B

Field: example entries. Status: answers known.
molecule	observable	value.measured
CCS(=O)(=O)c1cccc(-c2ccc(O)c3[nH]c4ncc(C)cc4c23)c1 [Compound 158]	IC50	< 4 nM
Cc1cnc2[nH]c3c(OC[C@@H]4CN(CCO)CCO4)ccc(-c4cccc(S(=O)(=O)C5CC5)c4)c3c2c1 [Compound 363]	IC50	4 to 5.5 nM
CCS(=O)(=O)c1cccc(-c2cc(Cl)c(OC)c3[nH]c4ncc(C)cc4c23)c1 [Compound 246]	IC50	5.6 to 8.5 nM

Now, please, on to the next molecule.
# input molecule: CCS(=O)(=O)c1cccc(-c2cc(Cl)c(OCCCO)c3[nH]c4ncc(C)cc4c23)c1 [Compound 248] ; wanted: its IC50
> 13 nM

---

assay.target: Aurora B/INCENP (Homo sapiens, UniProt Q96GD4)
Sequence (Q96GD4 whole entry): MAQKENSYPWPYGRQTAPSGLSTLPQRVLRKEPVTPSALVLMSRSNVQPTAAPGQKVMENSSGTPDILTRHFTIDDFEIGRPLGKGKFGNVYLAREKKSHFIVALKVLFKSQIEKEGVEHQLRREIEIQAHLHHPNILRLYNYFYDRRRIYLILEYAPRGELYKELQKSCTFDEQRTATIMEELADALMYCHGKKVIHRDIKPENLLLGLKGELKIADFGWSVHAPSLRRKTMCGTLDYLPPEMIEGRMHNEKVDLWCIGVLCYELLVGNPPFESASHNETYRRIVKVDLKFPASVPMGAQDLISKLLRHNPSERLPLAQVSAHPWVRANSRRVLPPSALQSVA
Sequence (Q9NQS7 whole entry partner): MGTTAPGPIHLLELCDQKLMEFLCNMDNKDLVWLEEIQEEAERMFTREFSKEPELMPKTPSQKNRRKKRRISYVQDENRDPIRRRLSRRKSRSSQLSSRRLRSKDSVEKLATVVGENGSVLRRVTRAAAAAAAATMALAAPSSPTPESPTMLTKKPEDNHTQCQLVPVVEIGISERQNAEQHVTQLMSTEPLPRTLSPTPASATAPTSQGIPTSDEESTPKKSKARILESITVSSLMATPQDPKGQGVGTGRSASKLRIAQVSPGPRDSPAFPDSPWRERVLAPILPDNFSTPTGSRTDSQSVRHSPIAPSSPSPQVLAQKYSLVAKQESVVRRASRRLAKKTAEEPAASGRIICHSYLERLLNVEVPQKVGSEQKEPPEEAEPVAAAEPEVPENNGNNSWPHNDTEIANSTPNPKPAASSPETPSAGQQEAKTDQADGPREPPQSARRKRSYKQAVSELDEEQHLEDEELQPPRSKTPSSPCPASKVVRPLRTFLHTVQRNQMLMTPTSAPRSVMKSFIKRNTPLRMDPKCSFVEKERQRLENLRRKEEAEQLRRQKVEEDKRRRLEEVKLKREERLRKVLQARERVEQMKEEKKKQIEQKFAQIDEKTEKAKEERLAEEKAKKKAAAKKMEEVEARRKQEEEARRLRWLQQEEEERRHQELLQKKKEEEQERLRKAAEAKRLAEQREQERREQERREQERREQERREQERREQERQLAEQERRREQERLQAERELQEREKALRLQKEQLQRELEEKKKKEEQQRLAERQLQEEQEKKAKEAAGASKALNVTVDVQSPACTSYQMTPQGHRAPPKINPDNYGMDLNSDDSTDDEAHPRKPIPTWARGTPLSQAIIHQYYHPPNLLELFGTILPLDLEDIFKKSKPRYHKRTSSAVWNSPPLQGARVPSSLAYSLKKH
test.summary: Determination of inhibition of AIK: Aurora B/INCENP direct fluorescence polarization (IMAP) assay
Format: biochemical
condition.description: 10 uM ATP, 0.8 nM Aurora B/INCENP; values given as bins; read-out: IC50 of Exemplified Compounds Against AIK B
Let's look at some compounds and their measured IC50.

Record CCS(=O)(=O)c1cccc(-c2ccc(C)c3[nH]c4ncc(C)cc4c23)c1 [Compound 18] : what is its IC50 with Aurora B/INCENP (Homo sapiens, UniProt Q96GD4)?
5.6 to 8.5 nM

Record CCS(=O)(=O)c1cccc(-c2cnc(OC[C@@H](C)O)c3[nH]c4ncc(Cl)cc4c23)c1 [Compound 73] : what is its IC50 with Aurora B/INCENP (Homo sapiens, UniProt Q96GD4)?
< 4 nM

---

assay.target: Aurora B/INCENP (Homo sapiens)
test.summary: Determination of inhibition of AIK: Aurora B/INCENP direct fluorescence polarization (IMAP) assay
condition.description: 10 uM ATP, 0.8 nM Aurora B/INCENP; values given as bins; read-out: IC50 of Exemplified Compounds Against AIK B
pIC50: −log10 of the molar value.
observable: pIC50

Field: example entries. Status: answers known.
smiles.record	pIC50
CC(=O)Nc1ccc(Sc2cccc3[nH]c4ncccc4c23)cc1	< 7.89
CCS(=O)(=O)c1cccc(-c2cc(C(=O)OC)c(Cl)c3[nH]c4ncc(C)cc4c23)c1	8.26 to 8.40
CCS(=O)(=O)c1cccc(-c2cc(C(=O)N3CCC(CCO)CC3)c(C)c3[nH]c4ncc(C)cc4c23)c1	7.89 to 8.07

Now, please, on to the next compound.
# input compound: CCS(=O)(=O)c1cccc(-c2ccc(OCCCOC)c3[nH]c4ncc(C)cc4c23)c1 ; wanted: its pIC50
8.07 to 8.25

---

assay.target: Aurora B/INCENP (Homo sapiens, UniProt Q96GD4)
test.summary: Determination of inhibition of AIK: Aurora B/INCENP direct fluorescence polarization (IMAP) assay
condition.description: 10 uM ATP, 0.8 nM Aurora B/INCENP; values given as bins; read-out: IC50 of Exemplified Compounds Against AIK B
pIC50: −log10 of the molar value.
observable: pIC50

compound	assay.target	pIC50
CCN(CCO)CCOc1ccc(-c2cccc(S(=O)(=O)C3CC3)c2)c2c1[nH]c1ncc(Cl)cc12 [Compound 323]	Aurora B/INCENP (Homo sapiens, UniProt Q96GD4)	8.07 to 8.25
CCS(=O)(=O)c1cccc(-c2cc(N(C)C(=O)C3CC3)c(OC)c3[nH]c4ncc(C)cc4c23)c1 [Compound 253]	Aurora B/INCENP (Homo sapiens, UniProt Q96GD4)	< 7.89
CCS(=O)(=O)c1cccc(-c2ccc(OCC(F)(F)F)c3[nH]c4ncc(C)cc4c23)c1 [Compound 173]	Aurora B/INCENP (Homo sapiens, UniProt Q96GD4)	8.07 to 8.25

# input compound: CCS(=O)(=O)c1cccc(-c2ccc(OCCCN(CCO)CC(F)(F)F)c3[nH]c4ncc(C)cc4c23)c1 [Compound 340] ; wanted: its pIC50
< 7.89

# input compound: Cc1cnc2[nH]c3c(OCCCN4CCC(COP(=O)(O)O)CC4)ccc(-c4cccc(S(=O)(=O)C5CC5)c4)c3c2c1 [Compound 347] ; wanted: its pIC50
> 8.40

# input compound: CCS(=O)(=O)c1cccc(-c2cnc(OCC3CCN(C)CC3)c3[nH]c4ncc(C)cc4c23)c1 [Compound 54] ; wanted: its pIC50
7.89 to 8.07

# input compound: CCN(CCCOc1ccc(-c2cccc(S(=O)(=O)CC)c2)c2c1[nH]c1ncc(C)cc12)CCOP(=O)(O)O [Compound 278] ; wanted: its pIC50
8.26 to 8.40

# input compound: CCS(=O)(=O)c1cccc(-c2cc(C(=O)NCCOC)c(C)c3[nH]c4ncc(C)cc4c23)c1 [Compound 90] ; wanted: its pIC50
8.07 to 8.25

# input compound: CCS(=O)(=O)c1cccc(-c2cc(C(=O)N[C@@H]3CCCNC3)c(C)c3[nH]c4ncc(C)cc4c23)c1 [Compound 108] ; wanted: its pIC50
< 7.89

# input compound: CCS(=O)(=O)c1cccc(-c2cnc(NC3CCN(C)CC3)c3[nH]c4ncc(C)cc4c23)c1 [Compound 44] ; wanted: its pIC50
7.89 to 8.07

# input compound: Cc1cnc2[nH]c3c(OCCN4CCC(O)CC4)ccc(-c4cccc(S(=O)(=O)C5CC5)c4)c3c2c1 [Compound 322] ; wanted: its pIC50
> 8.40

# input compound: COc1ccc(-c2cccc(S(=O)(=O)[C@@H]3CCNC3)c2)c2c1[nH]c1ncc(C)cc12 [Compound 160] ; wanted: its pIC50
8.07 to 8.25

# input compound: CCS(=O)(=O)c1cccc(-c2cc(NC(=O)CCN(C)C)c(OC)c3[nH]c4ncc(C)cc4c23)c1 [Compound 240] ; wanted: its pIC50
8.07 to 8.25
